Test: Cmax in Wistar rat at 1 mg/kg, po after 0.5 hrs by HPLC-MS/MS analysis
Format: ADME, organism-based
Set-up: dose 1 mg/kg, route oral
Details: in vivo
measurementLabel: Cmax (ng/mL)

> print(dat)
                                   compound  measurementlabel  reportedmeasurement
1  [O-][S+](c1cccc(OC(F)(F)F)c1)c1c(O)c(-c2cccnc2)cc2ccccc12 (stereo unspecified)              Cmax                 40.4

----------
Target: Cytochrome P450 11B2, mitochondrial (Homo sapiens)
Sequence (P19099 whole entry): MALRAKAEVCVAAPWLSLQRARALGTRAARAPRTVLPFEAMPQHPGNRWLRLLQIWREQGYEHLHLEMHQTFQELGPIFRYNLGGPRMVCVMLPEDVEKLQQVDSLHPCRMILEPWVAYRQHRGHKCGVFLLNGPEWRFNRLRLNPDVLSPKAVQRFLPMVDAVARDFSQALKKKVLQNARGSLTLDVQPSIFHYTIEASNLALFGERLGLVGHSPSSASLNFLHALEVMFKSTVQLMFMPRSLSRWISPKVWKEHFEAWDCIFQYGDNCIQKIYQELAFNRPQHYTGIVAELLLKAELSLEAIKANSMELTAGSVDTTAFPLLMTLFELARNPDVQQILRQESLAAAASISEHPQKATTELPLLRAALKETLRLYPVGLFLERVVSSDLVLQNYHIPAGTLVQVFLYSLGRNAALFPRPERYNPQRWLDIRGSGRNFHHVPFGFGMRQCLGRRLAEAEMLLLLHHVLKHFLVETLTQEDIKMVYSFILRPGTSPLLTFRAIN
Type: cell-based
Conditions: V79MZ, 1 h
measurementLabel: inhibition (%)

> print(dat)
                                    molecule  measurementlabel  reportedmeasurement
 1  N#Cc1ccc([S+]([O-])c2c(O)c(-c3cccnc3)cc3ccccc23)cc1 (centres undefined)        inhibition                   47
 2       Oc1c(-c2cccnc2)cc2ccccc2c1Sc1ccccc1        inhibition                   22
 3  [O-][S+](c1cc(Cl)cc(Cl)c1)c1c(O)c(-c2cccnc2)cc2ccccc12 (centres undefined)        inhibition                   87
 4  [O-][S+](c1ccc(C(F)(F)F)cc1)c1c(O)c(-c2cccnc2)cc2ccccc12 (centres undefined)        inhibition                   81
 5  [O-][S+](c1ccc(Cl)c(Cl)c1)c1c(O)c(-c2cccnc2)cc2ccccc12 (centres undefined)        inhibition                   90
 6  COc1ccc([S+]([O-])c2c(O)c(-c3cccnc3)cc3ccccc23)cc1 (centres undefined)        inhibition                   80
 7   COc1ccccc1Sc1c(O)c(-c2cccnc2)cc2ccccc12        inhibition                   18
 8  [O-][S+](c1cccc(F)c1)c1c(O)c(-c2cccnc2)cc2ccccc12 (centres undefined)        inhibition                   85
 9  [O-][S+](c1cc(C(F)(F)F)cc(C(F)(F)F)c1)c1c(O)c(-c2cccnc2)cc2ccccc12 (centres undefined)        inhibition                   78
10  COc1ccc(Sc2c(O)c(-c3cccnc3)cc3ccccc23)cc1        inhibition                   22
11  [O-][S+](c1cccs1)c1c(O)c(-c2cccnc2)cc2ccccc12 (centres undefined)        inhibition                   79
12      c1ccc(Sc2cc(-c3cccnc3)cc3ccccc23)cc1        inhibition                   15
13  N#Cc1cccc([S+]([O-])c2c(O)c(-c3cccnc3)cc3ccccc23)c1 (centres undefined)        inhibition                   84
14  [O-][S+](c1ccccc1)c1c(O)c(-c2cccnc2)cc2ccccc12 (centres undefined)        inhibition                   85
15  [O-][S+](c1ccccc1)c1cc(-c2cccnc2)cc2ccccc12 (centres undefined)        inhibition                   33
16  [O-][S+](c1ccc(F)cc1)c1c(O)c(-c2cccnc2)cc2ccccc12 (centres undefined)        inhibition                   84
17  [O-][S+](c1cccc(OC(F)(F)F)c1)c1c(O)c(-c2cccnc2)cc2ccccc12 (centres undefined)        inhibition                   83
18  COc1cccc(Sc2c(O)c(-c3cccnc3)cc3ccccc23)c1        inhibition                   20
19  [O-][S+](c1ccccc1C(F)(F)F)c1c(O)c(-c2cccnc2)cc2ccccc12 (centres undefined)        inhibition                   86
